Origin of measurements: PubChem BioAssay AID624163

System: Aminopeptidase N (Plasmodium falciparum (isolate 3D7)) (UniProt O96935)
Sequence (O96935 whole entry, looked up): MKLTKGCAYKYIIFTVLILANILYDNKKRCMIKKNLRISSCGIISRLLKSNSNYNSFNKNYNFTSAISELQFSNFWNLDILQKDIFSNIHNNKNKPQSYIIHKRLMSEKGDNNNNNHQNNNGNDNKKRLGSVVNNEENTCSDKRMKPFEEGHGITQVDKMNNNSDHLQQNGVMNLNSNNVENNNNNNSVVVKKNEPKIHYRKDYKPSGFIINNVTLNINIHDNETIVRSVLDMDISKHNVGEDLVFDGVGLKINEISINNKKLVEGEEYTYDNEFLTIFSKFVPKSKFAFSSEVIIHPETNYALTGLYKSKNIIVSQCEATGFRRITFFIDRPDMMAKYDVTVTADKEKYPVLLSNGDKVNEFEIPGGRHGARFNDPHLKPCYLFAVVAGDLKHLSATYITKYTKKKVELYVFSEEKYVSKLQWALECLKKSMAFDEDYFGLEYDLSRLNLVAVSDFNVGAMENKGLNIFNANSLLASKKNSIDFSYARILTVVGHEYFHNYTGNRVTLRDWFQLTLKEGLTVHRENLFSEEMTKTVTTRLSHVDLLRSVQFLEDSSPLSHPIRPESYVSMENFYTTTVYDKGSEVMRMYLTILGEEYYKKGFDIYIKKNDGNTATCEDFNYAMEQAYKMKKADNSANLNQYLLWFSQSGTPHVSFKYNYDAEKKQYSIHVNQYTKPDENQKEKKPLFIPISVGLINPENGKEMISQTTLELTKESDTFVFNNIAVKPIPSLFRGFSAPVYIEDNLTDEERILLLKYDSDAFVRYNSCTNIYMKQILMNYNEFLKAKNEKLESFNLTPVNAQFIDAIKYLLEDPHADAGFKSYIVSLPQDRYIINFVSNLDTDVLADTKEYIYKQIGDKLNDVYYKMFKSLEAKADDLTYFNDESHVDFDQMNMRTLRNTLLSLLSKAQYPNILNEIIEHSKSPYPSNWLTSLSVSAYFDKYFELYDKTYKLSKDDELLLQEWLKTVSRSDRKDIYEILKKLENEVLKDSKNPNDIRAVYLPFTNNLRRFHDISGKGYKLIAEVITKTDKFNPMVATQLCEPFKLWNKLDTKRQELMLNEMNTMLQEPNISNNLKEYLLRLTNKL
Experiment: PFM1AAP inhibitors, dose response, biochemical, QFRET, fluorogenic H-Leu-NHMec substrate, set 3 (AID 624163)
Cond: purified rPFM1AAP, H-Leu-NHMec fluorogenic substrate cleavage
pIC50: recorded values
Kindly note that pIC50 refers to -log10 of the concentration in mol/L and answer with the value alone.

State the recorded pIC50 for this entry: O=C(NCc1cccc(F)c1)C1CCN(S(=O)(=O)c2sccc2Br)CC1
4.53

====

System: Aminopeptidase N (Plasmodium falciparum (isolate 3D7))
Experiment: PFM1AAP inhibitors, dose response, biochemical, QFRET, fluorogenic H-Leu-NHMec substrate, set 3 (AID 624163)
Cond: purified rPFM1AAP, H-Leu-NHMec fluorogenic substrate cleavage
pIC50: recorded values
Kindly note that pIC50 refers to -log10 of the concentration in mol/L and answer with the value alone.

O=C(NCc1ccc2c(c1)OCO2)C1CCN(S(=O)(=O)c2sccc2Br)CC1 4.46
O=C(NCc1ccc(F)cc1)C1CCN(S(=O)(=O)c2sccc2Br)CC1 4.16
O=C(NCc1ccc2c(c1)OCO2)C1CCN(S(=O)(=O)c2ccc(Br)cc2)CC1 5.13

Request body: readout pIC50, system Aminopeptidase N (Plasmodium falciparum (isolate 3D7)), query O=C(NCc1ccccc1F)C1CCN(S(=O)(=O)c2sccc2Br)CC1 . Return the value.
4.47

Please answer likewise for O=C(NCc1ccc2c(c1)OCO2)C1CCN(S(=O)(=O)c2ccc(Cl)s2)CC1
5.55

Please answer likewise for O=C(NCc1cccc(F)c1)C1CCN(S(=O)(=O)c2ccc(Br)s2)CC1
5.66

Please answer likewise for O=C(NCc1cccc(F)c1)C1CCN(S(=O)(=O)c2ccc(Cl)s2)CC1
5.40

Please answer likewise for O=C(NCc1ccccc1F)C1CCN(S(=O)(=O)c2ccc(Br)cc2)CC1
4.89

Please answer likewise for O=C(NCc1ccc(F)cc1)C1CCN(S(=O)(=O)c2ccc(Cl)s2)CC1
5.19

Please answer likewise for O=C(NCc1cccc(F)c1)C1CCN(S(=O)(=O)c2ccc(Br)cc2)CC1
4.95

Please answer likewise for O=C(NCc1ccc(F)cc1)C1CCN(S(=O)(=O)c2ccc(Br)cc2)CC1
4.55

Please answer likewise for O=C(NCc1ccc(F)cc1)C1CCN(S(=O)(=O)c2ccc(Br)s2)CC1
5.40

Please answer likewise for O=C(NCc1ccc2c(c1)OCO2)C1CCN(S(=O)(=O)c2ccc(Br)s2)CC1
5.91

Please answer likewise for O=C(NCc1ccccc1F)C1CCN(S(=O)(=O)c2ccc(Cl)s2)CC1
5.40

Please answer likewise for O=C(NCc1ccccc1F)C1CCN(S(=O)(=O)c2ccc(Br)s2)CC1
5.60
